Let's look at some binders and their measured log10 of Reactivity (OD492).
system-under-test: biotinylated HCV core peptide 134-154 (Peptide 1) (HCV-1)
assay-summary: EIA, captured mAb
Heads up, the numbers here are log10 of Reactivity (OD492) in OD units.

Consider the reported log10 of Reactivity (OD492) for these binders:
HCV 208A-605 (antibody, V domains shown) VH: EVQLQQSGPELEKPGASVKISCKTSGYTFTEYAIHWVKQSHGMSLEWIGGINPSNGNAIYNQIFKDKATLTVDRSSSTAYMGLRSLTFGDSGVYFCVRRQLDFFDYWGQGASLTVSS VL: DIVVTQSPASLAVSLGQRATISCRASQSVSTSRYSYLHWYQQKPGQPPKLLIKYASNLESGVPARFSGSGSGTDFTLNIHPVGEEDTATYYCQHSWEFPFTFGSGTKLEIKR: -0.66
HCV 208B-281 (antibody, V domains shown) VH: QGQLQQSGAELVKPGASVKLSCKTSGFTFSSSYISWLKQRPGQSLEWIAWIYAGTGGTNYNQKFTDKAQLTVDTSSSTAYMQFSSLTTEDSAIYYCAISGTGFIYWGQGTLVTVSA VL: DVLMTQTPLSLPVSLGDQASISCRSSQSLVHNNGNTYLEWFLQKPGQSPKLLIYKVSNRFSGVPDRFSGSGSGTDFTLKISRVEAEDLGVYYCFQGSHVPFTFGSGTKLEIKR: 0.17

Task: Name the recorded log10 of Reactivity (OD492) for HCV 208A-442 (antibody, V domains shown) VH: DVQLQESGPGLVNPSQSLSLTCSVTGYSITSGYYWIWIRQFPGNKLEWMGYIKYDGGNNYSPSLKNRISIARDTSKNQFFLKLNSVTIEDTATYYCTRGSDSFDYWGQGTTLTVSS VL: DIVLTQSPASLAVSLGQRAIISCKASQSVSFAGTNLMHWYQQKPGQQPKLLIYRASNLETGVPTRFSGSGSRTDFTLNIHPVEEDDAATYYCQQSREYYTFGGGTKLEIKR .
Output: -1.10

Task: Name the recorded log10 of Reactivity (OD492) for HCV 208B-560 (antibody, V domains shown) VH: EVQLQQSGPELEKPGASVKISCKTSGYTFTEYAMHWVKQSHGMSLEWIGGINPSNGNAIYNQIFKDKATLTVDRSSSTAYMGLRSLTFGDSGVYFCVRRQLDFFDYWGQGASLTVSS VL: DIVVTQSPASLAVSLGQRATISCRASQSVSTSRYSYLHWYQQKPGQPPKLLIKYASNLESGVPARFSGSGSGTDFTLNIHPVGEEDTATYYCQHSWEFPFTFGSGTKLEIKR .
Output: -0.96

Task: Name the recorded log10 of Reactivity (OD492) for HCV 208A-877 (antibody, V domains shown) VH: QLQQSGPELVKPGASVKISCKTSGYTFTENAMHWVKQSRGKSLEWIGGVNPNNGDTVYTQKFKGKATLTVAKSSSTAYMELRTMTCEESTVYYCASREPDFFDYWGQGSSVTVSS VL: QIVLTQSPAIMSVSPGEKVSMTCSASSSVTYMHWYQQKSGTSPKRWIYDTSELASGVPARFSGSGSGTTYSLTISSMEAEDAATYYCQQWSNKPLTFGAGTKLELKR .
Output: -1.22

Task: Name the recorded log10 of Reactivity (OD492) for HCV 208A-159 (antibody, V domains shown) VH: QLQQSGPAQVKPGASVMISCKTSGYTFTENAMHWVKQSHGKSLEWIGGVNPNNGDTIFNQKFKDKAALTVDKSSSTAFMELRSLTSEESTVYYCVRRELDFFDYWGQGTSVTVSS VL: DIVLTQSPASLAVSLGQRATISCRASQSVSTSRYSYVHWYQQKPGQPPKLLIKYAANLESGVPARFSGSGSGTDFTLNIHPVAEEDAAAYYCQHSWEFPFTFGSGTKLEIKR .
Output: -0.82

Task: Name the recorded log10 of Reactivity (OD492) for HCV 208B-408 (antibody, V domains shown) VH: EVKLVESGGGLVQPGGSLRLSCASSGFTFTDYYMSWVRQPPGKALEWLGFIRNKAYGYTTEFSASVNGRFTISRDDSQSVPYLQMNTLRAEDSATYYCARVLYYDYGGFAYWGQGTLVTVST VL: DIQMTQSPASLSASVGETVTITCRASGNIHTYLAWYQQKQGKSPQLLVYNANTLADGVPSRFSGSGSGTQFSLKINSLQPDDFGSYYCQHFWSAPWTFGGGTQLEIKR .
Output: -0.09
